- Test system: HCI-027 (organoid from a triple-negative breast cancer xenograft)
- Protocol details: CTG-3D luminescence at 96 h relative to day-0 seeding control (ratio to day 0); higher = more growth / less cytotoxicity; PDxO 3D drug screen (set 2), 96 h, CTG-3D normalised to day-0 seeding control.
- Assay conditions: 0.1 µM; days in culture: 145
Readout: CTG-3D luminescence at 96 h
Write the number on its own, no unit after it.

C[C@@H](Nc1cc(F)cc(F)c1)c1cc(C(=O)N(C)C)cc2c(=O)cc(N3CCOCC3)oc12 [AZD-8186] :: 1.94

Below: the item to evaluate.
Ask | Query (compound): CO[C@H]1C[C@@H]2CC[C@@H](C)[C@@](O)(O2)C(=O)C(=O)N2CCCC[C@H]2C(=O)O[C@H]([C@H](C)C[C@@H]2CC[C@@H](O)[C@H](OC)C2)CC(=O)[C@H](C)/C=C(\C)[C@@H](O)[C@@H](OC)C(=O)[C@H](C)C[C@H](C)/C=C/C=C/C=C/1C [rapamycin] ; field requested: CTG-3D luminescence at 96 h
Reply | 1.15
